Method: Solvent solubility screen in 32 solvent systems
Type: physicochemical
Particulars: 40 °C, organic solvent or mixture, thermodynamic from solid; solvent DCM; (P) = partial solubility at 100 volumes; read-out: Approximate solubility
Measured quantity: solubility

Return reported solubility; argument: COc1ccc(CN2C3CC2CN(c2ccc(-c4cc(OCC(C)(C)O)cn5ncc(C#N)c45)cn2)C3)cn1
< 5000 µg/mL

---

Method: Solvent solubility screen in 32 solvent systems
Assay type: physicochemical
Particulars: 40 °C, organic solvent or mixture, thermodynamic from solid; solvent Acetone; read-out: Approximate solubility
Measured quantity: solubility

Return reported solubility; argument: COc1ccc(CN2C3CC2CN(c2ccc(-c4cc(OCC(C)(C)O)cn5ncc(C#N)c45)cn2)C3)cn1
< 5000 µg/mL

---

Method: Solvent solubility screen in 32 solvent systems
Type: physicochemical
Particulars: 40 °C, organic solvent or mixture, thermodynamic from solid; solvent Cyclohexanone; (P) = partial solubility at 100 volumes; read-out: Approximate solubility
Measured quantity: solubility

Return reported solubility; argument: COc1ccc(CN2C3CC2CN(c2ccc(-c4cc(OCC(C)(C)O)cn5ncc(C#N)c45)cn2)C3)cn1 [compound of Formula (I)]
< 5 mg/mL

---

Method: Solvent solubility screen in 32 solvent systems
Format: physicochemical
Particulars: 40 °C, organic solvent or mixture, thermodynamic from solid; solvent MIBK; read-out: Approximate solubility
Measured quantity: solubility

Return reported solubility; argument: COc1ccc(CN2C3CC2CN(c2ccc(-c4cc(OCC(C)(C)O)cn5ncc(C#N)c45)cn2)C3)cn1 [compound of Formula (I)]
< 5000 µg/mL

---

Method: Solvent solubility screen in 32 solvent systems
Format: physicochemical
Particulars: 40 °C, organic solvent or mixture, thermodynamic from solid; solvent THF; (P) = partial solubility at 100 volumes; read-out: Approximate solubility
Measured quantity: solubility

Return reported solubility; argument: COc1ccc(CN2C3CC2CN(c2ccc(-c4cc(OCC(C)(C)O)cn5ncc(C#N)c45)cn2)C3)cn1
< 5000 µg/mL

---

Method: Solvent solubility screen in 32 solvent systems
Format: physicochemical
Particulars: 40 °C, organic solvent or mixture, thermodynamic from solid; solvent 1-Butanol; read-out: Approximate solubility
Measured quantity: solubility

Return reported solubility; argument: COc1ccc(CN2C3CC2CN(c2ccc(-c4cc(OCC(C)(C)O)cn5ncc(C#N)c45)cn2)C3)cn1 [compound of Formula (I)]
< 5000 µg/mL

---

Method: Solvent solubility screen in 32 solvent systems
Format: physicochemical
Particulars: 40 °C, organic solvent or mixture, thermodynamic from solid; solvent MeOAc; read-out: Approximate solubility
Measured quantity: solubility

Return reported solubility; argument: COc1ccc(CN2C3CC2CN(c2ccc(-c4cc(OCC(C)(C)O)cn5ncc(C#N)c45)cn2)C3)cn1
< 5000 µg/mL

---

Method: Solvent solubility screen in 32 solvent systems
Format: physicochemical
Particulars: 40 °C, organic solvent or mixture, thermodynamic from solid; solvent Anisole; (P) = partial solubility at 100 volumes; read-out: Approximate solubility
Measured quantity: solubility

Return reported solubility; argument: COc1ccc(CN2C3CC2CN(c2ccc(-c4cc(OCC(C)(C)O)cn5ncc(C#N)c45)cn2)C3)cn1
< 5000 µg/mL
